# Tested on: lambsquarters (Chenopodium album)
# assay_name: Test C postemergence
# Assay type: in vivo
# recorded_conditions: Chenopodium album, post-emergence, 336 h; Postemergence, 31 g ai/ha, scale 0 to 100; read-out: Plant response rating, Lambsquarters
measured_parameter: pest or weed control at 31 g/ha (%)
Lab book: enter the figure in %, no units written.

- compound: "Clc1cnc(Oc2cccc(Cl)c2Oc2ncc(Br)cn2)nc1 [Compound 17]"
  measured_parameter: "pest or weed control at 31 g/ha"
  measured_number: 80

Give recorded pest or weed control at 31 g/ha with lambsquarters (Chenopodium album) for the following compound: Fc1cnc(Oc2c(F)ccc(F)c2Oc2ncc(F)cn2)nc1 [Compound 29]
80

Give recorded pest or weed control at 31 g/ha with lambsquarters (Chenopodium album) for the following compound: N#Cc1cccc(Oc2ncc(Cl)cn2)c1Oc1ccc(Cl)cc1 [Compound 36]
95

Give recorded pest or weed control at 31 g/ha with lambsquarters (Chenopodium album) for the following compound: N#Cc1cccc(Oc2ncc(Cl)cn2)c1Oc1ncc(Cl)cn1 [Compound 3]
85

Give recorded pest or weed control at 31 g/ha with lambsquarters (Chenopodium album) for the following compound: N#Cc1cccc(Oc2ncc(C(F)(F)F)cn2)c1Oc1ncc(Cl)cn1 [Compound 39]
70

Give recorded pest or weed control at 31 g/ha with lambsquarters (Chenopodium album) for the following compound: Fc1cccc(Oc2ncc(Cl)cn2)c1Oc1ccc(Cl)nc1 [Compound 20]
85

Give recorded pest or weed control at 31 g/ha with lambsquarters (Chenopodium album) for the following compound: N#Cc1cccc(Oc2ncc(Cl)cn2)c1Oc1ccc(Cl)cn1 [Compound 16]
80

---

Form field: pest or weed control at 125 g/ha (one value per entry).
# Test system: barnyardgrass (Echinochloa crus-galli)
# assay_name: Test A preemergence
# Assay type: in vivo
# recorded_conditions: Echinochloa crus-galli, pre-emergence, 240 h, 125 g ai/ha, 0 to 100 scale, read-out: Plant response rating, Barnyardgrass
# Text: […]
Lab book: enter the figure in %, no units written.

- compound: "N#Cc1cccc(Oc2ncc(Cl)cn2)c1Oc1ncc(Br)cn1 [Compound 4]"
  pest or weed control at 125 g/ha, %: 70
- compound: "FC(F)c1cnc(Oc2c(Br)cccc2Oc2ncc(Cl)cn2)s1 [Compound 10]"
  pest or weed control at 125 g/ha, %: 30
- compound: "N#Cc1cccc(Oc2ncc(Br)cn2)c1Oc1ccc(Br)cn1 [Compound 12]"
  pest or weed control at 125 g/ha, %: 30
- compound: "N#Cc1cccc(Oc2ncc(Cl)cn2)c1Oc1ccc(Cl)cn1 [Compound 16]"
  pest or weed control at 125 g/ha, %: 70

// moving on: another record for pest or weed control at 125 g/ha
// returns reported pest or weed control at 125 g/ha for input N#Cc1cccc(Oc2ncc(F)cn2)c1Oc1ccc(Br)cn1 [Compound 9]
90

---

# System: corn (Zea mays)
# assay_name: Test A postemergence
# Format: in vivo
# recorded_conditions: Zea mays, post-emergence, 240 h, 500 g ai/ha, 0 to 100 scale
measured_parameter: Corn plant response rating (crop injury, 0 = no effect, 100 = complete kill) at 500 g/ha

- structure_as_smiles: "FC(F)c1cccc(Oc2ncc(Cl)cn2)c1Oc1ncc(Cl)cn1"
  result: "100%"
- structure_as_smiles: "N#Cc1cccc(Oc2ncc(Br)cn2)c1Oc1ncc(Br)cn1"
  result: "80%"
- structure_as_smiles: "Fc1cccc(Oc2ncc(Cl)cn2)c1Oc1ncc(Cl)cn1"
  result: "60%"

Give recorded Corn plant response rating (crop injury, 0 = no effect, 100 = complete kill) at 500 g/ha with corn (Zea mays) for the following compound: `N#Cc1cccc(Oc2ncc(Br)cn2)c1Oc1ccc(Cl)cn1`
100%

---

Form field: plant injury at 62 g/ha (one value per entry).
# Tested on: winter wheat (Triticum aestivum)
# assay_name: Test C preemergence
# Type: in vivo
# recorded_conditions: Triticum aestivum, pre-emergence, 336 h; 62 g ai/ha, preemergence; scale 0 to 100; read-out: Plant response rating, Wheat
Lab book: enter the figure in %, no units written.

- compound: "Fc1ccc(F)c(Oc2ncc(Cl)cn2)c1Oc1ncc(Cl)cn1 [Compound 34]"
  unit: "%"
  measured_number: 15
- compound: "FC(F)c1cccc(Oc2ncc(Cl)cn2)c1Oc1ncc(Cl)cn1 [Compound 46]"
  unit: "%"
  measured_number: 5
- compound: "N#Cc1cccc(Oc2ncc(Cl)cn2)c1Oc1cnc(Cl)cn1 [Compound 32]"
  unit: "%"
  measured_number: 0
- compound: "N#Cc1cccc(Oc2ncc(Cl)cn2)c1Oc1ncc(C(F)(F)F)cn1 [Compound 38]"
  unit: "%"
  measured_number: 15

// returns reported plant injury at 62 g/ha for input Fc1cccc(Oc2ncc(Cl)cn2)c1Oc1ncc(C(F)(F)F)cn1 [Compound 43]
40

---

# Test system: lambsquarters (Chenopodium album)
# assay_name: Test C postemergence
# Type: in vivo
# recorded_conditions: Chenopodium album, post-emergence, 336 h; Postemergence, 62 g ai/ha, scale 0 to 100; read-out: Plant response rating, Lambsquarters
measured_parameter: pest or weed control at 62 g/ha

Worked cases, pest or weed control at 62 g/ha given:
- structure_as_smiles: "Fc1cnc(Oc2c(Cl)cccc2Oc2ncc(Cl)cn2)nc1"
  measurement_target: "lambsquarters (Chenopodium album)"
  result: "90%"
- structure_as_smiles: "Fc1cnc(Oc2c(F)cccc2Oc2ncc(Cl)cn2)nc1"
  measurement_target: "lambsquarters (Chenopodium album)"
  result: "80%"

Give recorded pest or weed control at 62 g/ha with lambsquarters (Chenopodium album) for the following compound: `Fc1cccc(Oc2ncc(Cl)cn2)c1Oc1ccc(Cl)nc1`
75%

Give recorded pest or weed control at 62 g/ha with lambsquarters (Chenopodium album) for the following compound: `Fc1cnc(Oc2c(Br)cccc2Oc2ncc(Cl)cn2)nc1`
75%

Give recorded pest or weed control at 62 g/ha with lambsquarters (Chenopodium album) for the following compound: `Fc1cccc(Oc2ncc(Cl)cn2)c1Oc1ncc(C(F)(F)F)cn1`
90%

Give recorded pest or weed control at 62 g/ha with lambsquarters (Chenopodium album) for the following compound: `N#Cc1cccc(Oc2ncc(Cl)cn2)c1Oc1ccc(Cl)cc1`
98%

---

Form field: pest or weed control at 62 g/ha (one value per entry).
# Tested on: morningglory (Ipomoea coccinea)
# assay_name: Test C preemergence
# Format: in vivo
# recorded_conditions: Ipomoea, pre-emergence, 336 h; 62 g ai/ha, preemergence; scale 0 to 100; read-out: Plant response rating, Morningglory

Worked cases, pest or weed control at 62 g/ha given:
- structure_as_smiles: "Fc1cccc(Oc2ncc(Cl)cn2)c1Oc1ncc(C(F)(F)F)cn1"
  pest or weed control at 62 g/ha: "100%"
- structure_as_smiles: "Fc1cccc(Oc2ncc(C(F)(F)F)cn2)c1Oc1ncc(Cl)cn1"
  pest or weed control at 62 g/ha: "100%"
- structure_as_smiles: "Fc1cccc(Oc2ncc(Cl)cn2)c1Oc1ncc(Br)cn1"
  pest or weed control at 62 g/ha: "40%"
- structure_as_smiles: "Fc1ccc(F)c(Oc2ncc(Cl)cn2)c1Oc1ncc(Cl)cn1"
  pest or weed control at 62 g/ha: "60%"

// moving on: another record for pest or weed control at 62 g/ha
Give recorded pest or weed control at 62 g/ha with morningglory (Ipomoea coccinea) for the following compound: `Fc1cnc(Oc2c(Br)cccc2Oc2ncc(Cl)cn2)nc1`
65%

---

# Tested on: lambsquarters (Chenopodium album)
# assay_name: Test C preemergence
# Type: in vivo
# recorded_conditions: Chenopodium album, pre-emergence, 336 h; 62 g ai/ha, preemergence; scale 0 to 100; read-out: Plant response rating, Lambsquarters
Form field: pest or weed control at 62 g/ha (one value per entry).
Lab book: enter the figure in %, no units written.

Worked cases, pest or weed control at 62 g/ha given:
- compound: "Fc1cccc(Oc2ncc(C(F)(F)F)cn2)c1Oc1ncc(Cl)cn1 [Compound 42]"
  measurement_target: "lambsquarters (Chenopodium album)"
  measured_parameter: "pest or weed control at 62 g/ha"
  unit: "%"
  measured_number: 100
- compound: "N#Cc1cccc(Oc2ncc(Br)cn2)c1Oc1ncc(Cl)cn1 [Compound 5]"
  measurement_target: "lambsquarters (Chenopodium album)"
  measured_parameter: "pest or weed control at 62 g/ha"
  unit: "%"
  measured_number: 100

// returns reported pest or weed control at 62 g/ha for input Fc1cccc(Oc2ncc(Cl)cn2)c1Oc1ncc(C(F)(F)F)cn1 [Compound 43]
100

// returns reported pest or weed control at 62 g/ha for input Fc1cccc(Oc2ncc(Cl)cn2)c1Oc1ncc(Cl)cn1 [Compound 21]
100

// returns reported pest or weed control at 62 g/ha for input N#Cc1cccc(Oc2ncc(Cl)cn2)c1Oc1ncc(Br)cn1 [Compound 4]
85

// returns reported pest or weed control at 62 g/ha for input N#Cc1cccc(Oc2ncc(C(F)(F)F)cn2)c1Oc1ncc(Cl)cn1 [Compound 39]
98

// returns reported pest or weed control at 62 g/ha for input FC(F)c1cccc(Oc2ncc(Cl)cn2)c1Oc1ncc(Cl)cn1 [Compound 46]
100

// returns reported pest or weed control at 62 g/ha for input Fc1cnc(Oc2c(F)ccc(F)c2Oc2ncc(F)cn2)nc1 [Compound 29]
85
